# Tested on: M. mycetomatis strain mm55
# EXPERIMENTAL_DETAILS: IC50 and MIC determination, CellTiter-Glo, strain mm55
# Assay type: cell-based, Madurella mycetomatis
# EXPERIMENTAL_SETUP: Madurella mycetomatis, concentration inhibiting 50% of fungal hyphae growth
Where a name gives a salt, the structure may show the parent alone.
OBSERVED_PROPERTY: IC50 (µM)
Give bare numbers, in µM.

Below: 3 compounds and their reported IC50.
COMPOUND	IC50 / µM
C[C@@H](c1ncncc1F)[C@](O)(Cn1cncn1)c1ccc(F)cc1F	0.63
CC[C@@H]([C@H](C)O)n1ncn(-c2ccc(N3CCN(c4ccc(OC[C@@H]5CO[C@@](Cn6cncn6)(c6ccc(F)cc6F)C5)cc4)CC3)cc2)c1=O	0.13
C=CCOC(Cn1ccnc1)c1ccc(Cl)cc1Cl (centres unmarked) [Enilconazole sulphate]	1.25

Next item in the queue.
[ask] What does the data say about its IC50? Entry: CCC(C)n1ncn(-c2ccc(N3CCN(c4ccc(OCC5COC(Cn6cncn6)(c6ccc(Cl)cc6Cl)O5)cc4)CC3)cc2)c1=O (centres unmarked) [Itraconazole hydrochloride]
[reply] 1.58

---

# System: M. mycetomatis strain mm55
# EXPERIMENTAL_SETUP: m. mycetomatis hyphae, 96 h, 2 µM
Where a name gives a salt, the structure may show the parent alone.
OBSERVED_PROPERTY: % viability (%)
Answers are plain numbers, in %.

MOLECULE	UNIT	% viability
COc1cccc([C@]2(O)CCCC[C@H]2CN(C)C)c1 [ONC0004178, tramadol hydrochloride]	%	135.3
CCO[C@H]1OC(=O)C[C@@H]1NC(=O)[C@@H]1CCCN1C(=O)[C@@H](NC(=O)c1ccc(N)c(Cl)c1)C(C)(C)C [ONC0004605, belnacasan vx765]	%	74.26
CC1(C)CN(C(=O)c2ccc(-c3cccc4nc(NC(=O)C5CC5)nn34)cc2)C1 [ONC0001278, solcitinib]	%	60.54
CCC[C@H](NC(=O)[C@@H]1[C@H]2CCC[C@H]2CN1C(=O)[C@@H](NC(=O)[C@@H](NC(=O)c1cnccn1)C1CCCCC1)C(C)(C)C)C(=O)C(=O)NC1CC1 [ONC0004652, telaprevir vx950]	%	71.4
CC(C)OC(=O)C(C)NP(=O)(COC(C)Cn1cnc2c(N)ncnc21)Oc1ccccc1 (stereo not shown) [ONC0004548, tenofovir alafenamide gs7340]	%	45.02
CC(C)NCCCn1c(Sc2cc3c(cc2I)OCO3)nc2c(N)ncnc21 [ONC0002276, puh71]	%	67.16

Let us examine a further case.
[ask] Which measured % viability value corresponds to CC(=O)Oc1ccccc1C(=O)Nc1ncc([N+](=O)[O-])s1 [ONC0002436, nitazoxanide] ?
[reply] 87.75

---

# Test system: M. mycetomatis strain P1
# EXPERIMENTAL_DETAILS: IC50 and MIC determination, CellTiter-Glo, strain P1
# Assay type: cell-based, Madurella mycetomatis
# EXPERIMENTAL_SETUP: strain P1
For each record, write down the corresponding IC50.

# return IC50 for each item in the list
1. C[CH2][Hg][S]c1ccccc1C(=O)[O-].[Na+]
2. CC(=O)[O][Hg][c]1ccccc1 [Phenylmercuric acetate]

[reply]
["< 0.03 µM", "< 0.03 µM"]

---

# Tested on: healthy uninfected G. mellonella larvae
# EXPERIMENTAL_SETUP: 20 µL of 20 µM injected; 10 day observation; toxic if more than 20% of larvae died
OBSERVED_PROPERTY: Toxicity in G. mellonella larvae at 20 µM

Recorded results for 4 molecules are shown here.
In [3]: df
Out[3]:
                              smiles_record         measurement
0              C/C(=N\NC(=S)N1CCC1)c1ccccn1  toxicity was noted
1      C[CH2][Hg][S]c1ccccc1C(=O)[O-].[Na+]  toxicity was noted
2       CC(C)(C)c1ccc(S(=O)(=O)/C=C/C#N)cc1           not toxic
3  CC(C)(C)c1cc(C=C(C#N)C#N)cc(C(C)(C)C)c1O  toxicity was noted

With those in mind, consider the next molecule.
[ask] Request the reported Toxicity in G. mellonella larvae at 20 µM associated with O=C(Nc1cc(C(F)(F)F)cc(C(F)(F)F)c1)c1cc(Cl)ccc1O
[reply] not toxic
